For each entry below, report its Composite Activity - Active value.
tested on: Hepatotoxicity; assay: FDA HLAED, liver enzyme composite activity; conditions: human
# respond with the number and nothing more

Value lookup for Composite Activity - Active; key = CC1=C(C(=O)O)N2C(=O)[C@@H](NC(=O)[C@H](N)c3ccc(O)cc3)[C@H]2SC1
0

Value lookup for Composite Activity - Active; key = CCC(C)n1ncn(-c2ccc(N3CCN(c4ccc(OCC5COC(Cn6cncn6)(c6ccc(Cl)cc6Cl)O5)cc4)CC3)cc2)c1=O (stereo not drawn)
5

Value lookup for Composite Activity - Active; key = CCCCCCCCCCC(=O)O[C@H]1CC[C@H]2[C@@H]3CCc4cc(O)ccc4[C@H]3CC[C@]12C [ESTRADIOL UNDECYLATE]
0

Value lookup for Composite Activity - Active; key = O=NN(CCCl)C(=O)NCCCl
1

Value lookup for Composite Activity - Active; key = Clc1ccc2c(c1)C(N1CCNCC1)=Nc1ccccc1O2
0

Value lookup for Composite Activity - Active; key = CC(C)(C)NC(=O)[C@H]1CC[C@H]2[C@@H]3CC[C@H]4NC(=O)C=C[C@]4(C)[C@H]3CC[C@]12C [FINASTERIDE]
0

Value lookup for Composite Activity - Active; key = CC(O)(P(=O)(O)O)P(=O)(O)O
1

Value lookup for Composite Activity - Active; key = COc1ccc(CCN2CCC(Nc3nc4ccccc4n3Cc3ccc(F)cc3)CC2)cc1
0

====

test system: Hepatotoxicity; assay: FDA HLAED, gamma-glutamyl transferase (GGT) increase; details: human
Measure Name: GGT Increase - Number of Reports

Compound	Measure Name	Assay Value
Nc1ncnc2c1ncn2[C@@H]1O[C@H](CO)[C@@H](O)[C@H]1O	GGT Increase - Number of Reports	< 4
Clc1ccc(CO/N=C(\Cn2ccnc2)c2ccc(Cl)cc2Cl)c(Cl)c1	GGT Increase - Number of Reports	< 4
N[C@@H](C(=O)N[C@@H]1C(=O)N2C(C(=O)O)=C(Cl)CC[C@H]12)c1ccccc1 [LORACARBEF ANHYDROUS]	GGT Increase - Number of Reports	< 4
CC(C)(C)NC(=O)[C@H]1CC[C@H]2[C@@H]3CC[C@H]4NC(=O)C=C[C@]4(C)[C@H]3CC[C@]12C [FINASTERIDE]	GGT Increase - Number of Reports	>= 4
C[C@]12CC[C@H]3[C@@H](CCC4=CC(=O)CC[C@@]43C)[C@@H]1CC[C@@H]2OC(=O)Cc1ccccc1 [TESTOSTERONE PHENYLACETATE]	GGT Increase - Number of Reports	< 4

Now, please, on to the next compound.
Value lookup for GGT Increase - Number of Reports; key = CCN(CC)CCNC(=O)c1cc(Cl)c(N)cc1OC [METOCLOPRAMIDE]
< 4

====

system: Hepatotoxicity; assay: FDA HLAED, lactate dehydrogenase (LDH) increase; conditions: human
Measure Name: LDH Increase - Index Value
# respond with the number and nothing more

Value lookup for LDH Increase - Index Value; key = CC1(C)NC(=O)N(c2ccc([N+](=O)[O-])c(C(F)(F)F)c2)C1=O [NILUTAMIDE]
0

Value lookup for LDH Increase - Index Value; key = N#Cc1cc(NC(=O)C(=O)O)c(Cl)c(NC(=O)C(=O)O)c1 [LODOXAMIDE]
0

Value lookup for LDH Increase - Index Value; key = Cc1ccccc1N1CCN(CCc2nnc3n2CCCC3)CC1
0

Value lookup for LDH Increase - Index Value; key = CCCCCc1cc(O)c2c(c1)OC(C)(C)[C@@H]1CCC(C)=C[C@@H]21
0

Value lookup for LDH Increase - Index Value; key = C#C[C@]1(O)CC[C@H]2[C@@H]3CCC4=CC(=O)CC[C@@H]4[C@H]3CC[C@@]21CC
28.3

Value lookup for LDH Increase - Index Value; key = CN1CCN(C2=Nc3cc(Cl)ccc3Nc3ccccc32)CC1
16.8

Value lookup for LDH Increase - Index Value; key = Cc1cc(CC(=O)O)n(C)c1C(=O)c1ccc(Cl)cc1 [ZOMEPIRAC]
0.7

Value lookup for LDH Increase - Index Value; key = CN1CCCC(n2nc(Cc3ccc(Cl)cc3)c3ccccc3c2=O)CC1 (configuration not stated)
0

Value lookup for LDH Increase - Index Value; key = N[C@@H](C(=O)N[C@@H]1C(=O)N2C(C(=O)O)=C(Cl)CS[C@H]12)c1ccccc1 [CEFACLOR ANHYDROUS]
0.4

Value lookup for LDH Increase - Index Value; key = CCCCC(C)(O)C/C=C/[C@H]1[C@H](O)CC(=O)[C@@H]1CCCCCCC(=O)OC (some centres not stated)
0.5

Value lookup for LDH Increase - Index Value; key = CN(C/C=C/c1ccccc1)Cc1cccc2ccccc12
0

Value lookup for LDH Increase - Index Value; key = CC1(C)C(C=C(Cl)Cl)C1C(=O)OCc1cccc(Oc2ccccc2)c1 (configuration not stated)
0

Value lookup for LDH Increase - Index Value; key = CC(Cc1ccc(O)c(O)c1)C(C)Cc1ccc(O)c(O)c1 (configuration not stated) [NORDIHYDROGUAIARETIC ACID]
0

Value lookup for LDH Increase - Index Value; key = C=CC1=C(C(=O)O)N2C(=O)[C@@H](NC(=O)/C(=N\OCC(=O)O)c3csc(N)n3)[C@H]2SC1
0.1

Value lookup for LDH Increase - Index Value; key = COC(=O)C1=C(C)NC(C)=C(C(=O)OCCN(C)Cc2ccccc2)C1c1cccc([N+](=O)[O-])c1 (configuration not stated)
0.9

Value lookup for LDH Increase - Index Value; key = CN1CCN2c3ncccc3Cc3ccccc3C2C1 (configuration not stated)
0.9

Value lookup for LDH Increase - Index Value; key = CCOC(=O)OC(C)OC(=O)[C@@H]1N2C(=O)[C@@H](NC(=O)[C@H](N)c3ccccc3)[C@H]2SC1(C)C (some centres not stated)
0

====

system: Hepatotoxicity; test: FDA HLAED, serum glutamic pyruvic transaminase (SGPT) increase; conditions: human
Measure Name: SGPT Increase - Number of Reports

Study these solved cases before continuing.
Molecule	Measure Name	Assay Value
CC(=O)CCCCn1c(=O)c2c(ncn2C)n(C)c1=O	SGPT Increase - Number of Reports	< 4
Cn1cc([S+](C)[O-])c(=O)c2ccc(F)cc21 (stereo not given)	SGPT Increase - Number of Reports	< 4
C[C@H]1C[C@H]2[C@@H]3CCC4=CC(=O)C=C[C@]4(C)[C@@]3(Cl)[C@@H](O)C[C@]2(C)[C@@]1(O)C(=O)CO	SGPT Increase - Number of Reports	< 4
C[C@]12CC[C@@H]3c4ccc(OC(=O)Cc5ccc(N(CCCl)CCCl)cc5)cc4CC[C@H]3[C@@H]1CC[C@@H]2OC(=O)Cc1ccc(N(CCCl)CCCl)cc1	SGPT Increase - Number of Reports	< 4
CCOC(=O)[C@H](CCc1ccccc1)N[C@@H](C)C(=O)N1[C@H](C(=O)O)C[C@@H]2CCC[C@@H]21	SGPT Increase - Number of Reports	< 4
OC(c1cc(C(F)(F)F)nc2c(C(F)(F)F)cccc12)C1CCCCN1 (stereo not given)	SGPT Increase - Number of Reports	>= 4
CCCCCCC(=O)O[C@H]1CC[C@H]2[C@@H]3CCC4=CC(=O)CC[C@]4(C)[C@H]3CC[C@]12C [TESTOSTERONE ENANTHATE]	SGPT Increase - Number of Reports	< 4
CN(Cc1ccc(C(C)(C)C)cc1)Cc1cccc2ccccc12	SGPT Increase - Number of Reports	< 4
C=CCN1C[C@H](C(=O)N(CCCN(C)C)C(=O)NCC)C[C@@H]2c3cccc4[nH]cc(c34)C[C@H]21	SGPT Increase - Number of Reports	< 4
CCOC(=O)[C@H](CCc1ccccc1)N[C@H]1CCc2ccccc2N(CC(=O)O)C1=O	SGPT Increase - Number of Reports	< 4

Now, please, on to the next molecule.
Under Hepatotoxicity: SGPT Increase - Number of Reports value of CCCCC(C)(O)C/C=C/[C@H]1[C@H](O)CC(=O)[C@@H]1CCCCCCC(=O)OC (stereo not given in full) ?
< 4

====

test system: Hepatotoxicity; assay: FDA HLAED, alkaline phosphatase increase; settings: human
For each entry below, report its Alkaline Phosphatase Increase - Index Value value.
# respond with the number and nothing more

Under Hepatotoxicity: Alkaline Phosphatase Increase - Index Value value of Nc1ccn([C@H]2CC[C@@H](CO)O2)c(=O)n1 ?
2.9

Under Hepatotoxicity: Alkaline Phosphatase Increase - Index Value value of CN(N=O)C(=O)N[C@@H](C=O)[C@@H](O)[C@H](O)[C@H](O)CO ?
11.8

Under Hepatotoxicity: Alkaline Phosphatase Increase - Index Value value of CCN1CCN(C(=O)N[C@@H](C(=O)N[C@@H]2C(=O)N3C(C(=O)O)=C(CSc4nnnn4C)CS[C@H]23)c2ccc(O)cc2)C(=O)C1=O ?
0

Under Hepatotoxicity: Alkaline Phosphatase Increase - Index Value value of CC(C)OC(=O)CCC/C=C\C[C@@H]1[C@@H](CC[C@@H](O)CCc2ccccc2)[C@H](O)C[C@@H]1O ?
0.2
